MEASUREMENT_TARGET: CYP1A2 (Homo sapiens, UniProt P05177)
Construct: human liver microsomes (0.25 mg/mL); from tissue; host or cells: human liver microsomes
Sequence (P05177 whole entry): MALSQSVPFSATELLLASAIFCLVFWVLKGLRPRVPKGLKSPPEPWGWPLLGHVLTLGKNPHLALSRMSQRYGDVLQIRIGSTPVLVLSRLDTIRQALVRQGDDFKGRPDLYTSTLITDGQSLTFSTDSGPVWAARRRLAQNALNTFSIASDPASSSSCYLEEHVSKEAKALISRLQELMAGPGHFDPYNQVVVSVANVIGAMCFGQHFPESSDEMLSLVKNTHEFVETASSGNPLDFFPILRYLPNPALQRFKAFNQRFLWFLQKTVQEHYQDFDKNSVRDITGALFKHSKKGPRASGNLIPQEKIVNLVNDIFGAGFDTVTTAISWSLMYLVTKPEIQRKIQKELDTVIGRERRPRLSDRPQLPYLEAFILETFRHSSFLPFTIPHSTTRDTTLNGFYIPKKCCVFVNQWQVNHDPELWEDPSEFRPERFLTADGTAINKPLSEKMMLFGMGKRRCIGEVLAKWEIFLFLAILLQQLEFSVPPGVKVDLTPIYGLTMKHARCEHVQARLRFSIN
METHOD_NOTES: Inhibitory effect on CYP coenzyme activity, human liver microsomes
Type: in vitro ADME
MEASUREMENT_PARAMETERS: 10 μM compound, human liver microsomes 0.25 mg/mL, substrate phenacetin, 15 minutes
MEASURED_PARAMETER: CYP1A2 coenzyme activity (%) with respect to control group not treated

SAMPLE_SMILES	READOUT_UNIT	MEASURED
Cn1c(=O)n(C)c2c(Cl)cc(NN=C(C#N)C#N)cc21	%	73.7
COc1cc(NN=C(C#N)C#N)cc2c1n(C)c(=O)n2C	%	37.8
N#CC(C#N)=NNc1ccc2[nH]c(=O)oc2c1	%	87.3
Cn1c(=O)n(C)c2cc(NN=C(C#N)C#N)c(Cl)cc21	%	94.2
CC(C)n1c(=O)n(C2CC2)c2ccc(NN=C(C#N)C#N)cc21	%	91.9
CC(C)n1c(=O)sc2cc(NN=C(C#N)C#N)ccc21	%	81.4
Cn1c(=O)n(C(F)F)c2cc(NN=C(C#N)C#N)ccc21	%	64.6
CC(C)n1c(=O)n(C)c2ccc(NN=C(C#N)C#N)cc21	%	93.7
N#CC(C#N)=NNc1cccc2c(=O)[nH]ccc12	%	85.3
CC(C)n1c(=O)n(C(C)C)c2cc(NN=C(C#N)C#N)ccc21	%	83.2
